conditions: the molecule shown is the open-chain precursor
Outcome: t for ring closure, conversion by HPLC (% (HPLC peak area)) of at least 4; f for anything lower.

substance | label_value
H-GCTCSWPVCTRNGLPVCGQTCVGGTCN-OH (6 free Cys) | f
H-TCNTPGCTCSWPVCTRNGLPVCGQTCV-OH (6 free Cys) | f
H-VCTRNGLPVCGQTCVGGTCNTPGCTCS-OH (6 free Cys) | t
H-VCGATCVGGTCNTPGCTCSWPVCT-OH (6 free Cys) | f
H-VCGETCVGGTCNTPGCTCSWPVCT-OH (6 free Cys) | t
cyclo-(CGQTCVGGTCNTPGCTCSWPVCTRNGLPV) (6 free Cys) | t
H-VCGQTCVGGTCNTPGCTCSWPVCT-OH (6 free Cys) | t

* * *

Collected ring closure, conversion by HPLC (% (HPLC peak area)) values appear next to each entry.
conditions: the molecule shown is the open-chain precursor
value_kind: ring closure, conversion by HPLC (% (HPLC peak area))

substance | reported_result
H-VCTRNGLPVCGQTCVGGTCNTPGCTCS-OH (6 free Cys) | 30.5
cyclo-(CGQTCVGGTCNTPGCTCSWPVCTRNGLPV) (6 free Cys) | 26.1
H-GCTCSWPVCTRNGLPVCGQTCVGGTCN-OH (6 free Cys) | 9.5
H-VCGQTCVGGTCNTPGCTCSWPVCT-OH (6 free Cys) | 16.1
H-VCGETCVGGTCNTPGCTCSWPVCT-OH (6 free Cys) | 23.4
H-VCGATCVGGTCNTPGCTCSWPVCT-OH (6 free Cys) | 4.6
H-TCNTPGCTCSWPVCTRNGLPVCGQTCV-OH (6 free Cys) | 8.1
